testedOn: human GABAB1 and GABAB2 receptor subunits (Homo sapiens, UniProt O75899+Q9UBS5)
Construct: expressed in transfected cells; host or cells: CHO cells
Sequence (Q9UBS5 15-961 limits assumed): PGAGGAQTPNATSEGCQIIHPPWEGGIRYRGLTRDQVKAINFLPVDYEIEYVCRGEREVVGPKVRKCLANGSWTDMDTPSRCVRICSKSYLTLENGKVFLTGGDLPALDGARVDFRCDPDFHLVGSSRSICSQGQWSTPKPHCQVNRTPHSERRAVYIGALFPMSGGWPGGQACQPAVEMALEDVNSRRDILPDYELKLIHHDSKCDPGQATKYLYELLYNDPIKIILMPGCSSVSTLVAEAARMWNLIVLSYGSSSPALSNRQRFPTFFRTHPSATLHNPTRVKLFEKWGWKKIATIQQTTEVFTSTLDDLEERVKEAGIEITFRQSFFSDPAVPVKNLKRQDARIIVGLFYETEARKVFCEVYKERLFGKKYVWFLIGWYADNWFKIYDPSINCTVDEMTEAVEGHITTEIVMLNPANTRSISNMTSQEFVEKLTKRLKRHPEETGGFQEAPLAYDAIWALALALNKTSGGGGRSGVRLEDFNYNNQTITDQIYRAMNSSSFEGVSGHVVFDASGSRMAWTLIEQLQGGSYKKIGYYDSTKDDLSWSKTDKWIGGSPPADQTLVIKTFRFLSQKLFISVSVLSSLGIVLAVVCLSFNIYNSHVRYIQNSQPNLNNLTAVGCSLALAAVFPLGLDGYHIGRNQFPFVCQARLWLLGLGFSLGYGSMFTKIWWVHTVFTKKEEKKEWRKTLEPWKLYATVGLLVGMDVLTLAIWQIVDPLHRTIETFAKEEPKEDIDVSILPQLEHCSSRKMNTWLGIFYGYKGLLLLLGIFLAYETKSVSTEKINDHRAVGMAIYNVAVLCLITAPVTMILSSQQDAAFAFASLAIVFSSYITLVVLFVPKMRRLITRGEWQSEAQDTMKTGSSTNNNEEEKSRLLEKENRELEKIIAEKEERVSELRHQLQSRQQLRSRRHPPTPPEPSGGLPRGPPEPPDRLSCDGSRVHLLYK
Sequence (O75899 42-941): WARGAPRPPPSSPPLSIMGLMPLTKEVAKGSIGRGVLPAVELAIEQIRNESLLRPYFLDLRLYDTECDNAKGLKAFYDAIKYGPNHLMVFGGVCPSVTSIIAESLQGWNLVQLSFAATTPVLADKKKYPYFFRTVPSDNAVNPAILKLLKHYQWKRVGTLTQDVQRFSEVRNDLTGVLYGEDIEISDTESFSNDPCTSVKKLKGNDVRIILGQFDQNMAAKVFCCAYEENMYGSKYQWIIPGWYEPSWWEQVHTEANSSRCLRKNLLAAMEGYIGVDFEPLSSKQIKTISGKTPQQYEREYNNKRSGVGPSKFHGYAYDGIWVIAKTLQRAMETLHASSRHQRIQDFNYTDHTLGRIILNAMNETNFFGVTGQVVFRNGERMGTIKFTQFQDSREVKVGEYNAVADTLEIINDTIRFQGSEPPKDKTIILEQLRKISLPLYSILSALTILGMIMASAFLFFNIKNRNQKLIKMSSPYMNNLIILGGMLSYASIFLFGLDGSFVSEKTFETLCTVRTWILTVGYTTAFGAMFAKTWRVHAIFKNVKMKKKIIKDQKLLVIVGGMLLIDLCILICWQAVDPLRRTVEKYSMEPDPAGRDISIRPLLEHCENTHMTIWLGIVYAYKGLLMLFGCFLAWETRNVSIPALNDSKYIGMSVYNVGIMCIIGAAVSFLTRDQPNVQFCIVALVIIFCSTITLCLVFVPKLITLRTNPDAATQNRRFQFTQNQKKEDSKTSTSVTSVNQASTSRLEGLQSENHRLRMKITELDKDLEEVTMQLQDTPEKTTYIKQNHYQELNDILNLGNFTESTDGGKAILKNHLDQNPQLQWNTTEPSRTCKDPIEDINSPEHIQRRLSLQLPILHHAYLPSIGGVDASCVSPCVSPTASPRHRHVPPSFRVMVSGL
procedureText: Agonism and positive allosteric modulator pharmacology in vitro, two-addition FLIPR calcium assay
Format: cell-based
measurementParameters: CHO cells co-expressing Galpha16; positive allosteric modulator efficacy at 10 μM (with EC10.5 GABA) / GABA efficacy at 30 μM
attributeMeasured: IA (GABAB positive allosteric modulation)

Here's what some known entries look like.
INSERT INTO assay_data (molecularstring, testedon, valuemeasured) VALUES
  ('C[C@H](c1ccc(Cl)cc1)n1c(=O)c2ccc(Cl)cc2n(CC2(C)COC2)c1=O', 'human GABAB1 and GABAB2 receptor subunits (Homo sapiens, UniProt O75899+Q9UBS5)', 0.64),
  ('Cn1c(=O)n(Cc2ccc(Br)cc2)c(=O)c2ccc(F)cc21', 'human GABAB1 and GABAB2 receptor subunits (Homo sapiens, UniProt O75899+Q9UBS5)', 0.45),
  ('CC1(C)Cn2c(=O)n(Cc3ccc(Br)cc3)c(=O)c3cc(F)c(F)c(c32)O1', 'human GABAB1 and GABAB2 receptor subunits (Homo sapiens, UniProt O75899+Q9UBS5)', 0.77);

[ask] Dear colleague, please send me the reported IA (GABAB positive allosteric modulation) for C[C@H](c1ccc(Cl)cc1)n1c(=O)c2ccc(Cl)cc2n(CC(C)(C)O)c1=O when you can.
[reply] 0.51

Sourced from patent US20170137387A1
